# assay explanation: qHTS Assay for Identification of Small Molecule Agonists for Hypoxia Response Element Signaling Pathway (AID 914)
# experimental parameters: ME-180 (cervical carcinoma) HRE-bla reporter, beta-lactamase ratio, CoCl2, 17 h; active compounds read high
Records with an inconclusive call do not appear.
Tag: t if measured activation is not below 3%, f if it is.

// known answers, use as guide
smiles str | assigned category
C[C@@H]1/C=C\CC(=O)OC[C@H](C)C(=O)N[C@@H](C)C(=O)OC1 | f
COc1ccc(COC(=O)N/N=C2/C[C@@H](O)[C@@H](O)[C@@H]3[C@@H]4C(=O)N(Cc5ccc6c(c5)OCO6)C(=O)[C@H]4CC[C@@H]23)cc1 | f
CC(C)[C@H](NC(=O)OC(C)(C)C)[C@@H](O)CC(=O)C(C)(C)C | t
C[C@H](c1ccccc1)N1C(=O)[C@H]2[C@@H]3[C@H](O)[C@H](O)CC(=O)[C@H]3CC[C@H]2C1=O | f
C/C(CCN1CCCc2nc(C)c(C)cc21)=N\O[C@@H](C)c1cn([C@@H]2COC[C@@H]2O)nn1 | t

Input line: Given the entry `O=C(N/N=C1/C[C@@H](O)[C@@H](O)[C@@H]2[C@@H]3C(=O)N(c4cccc(Oc5ccccc5)c4)C(=O)[C@H]3CC[C@H]12)OCc1ccccc1` , answer whether its activation meets or surpasses 3%.
Output line: t

Input line: hey, is activation for this one >= 3%? `CCN1C(=O)[C@H]2[C@H]3[C@H](O)[C@H](O)C/C(=N/OCc4ccccc4)[C@H]3CC[C@@H]2C1=O`
Output line: t

###

# assay explanation: Confirmation and Secondary Assay for Modulators of Hemoglobin Beta Chain Splicing at IVS2 654 locus (AID 910);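 note: HeLa cells stably carrying EGFP split by mutant beta-globin IVS2-654 intron; per-well total GFP intensity by laser scanning cytometry after 2-day treatment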
# experimental parameters: HeLa EGFP-654 splicing reporter, GFP fluorescence, 48 h; series mostly up to 46.1 µM
The source made the active and inactive calls. The call rests on the fitted dose curve; in most records, active means well fitted activation curve with a large enough effect; inconclusive means small, poorly fitted or top-dose-only effect; inactive means flat fitted curve, though single readings scatter.
readout label: outcome

Reference set (5 entries):
molecule | reading
COc1ccc2cc1Oc1ccc(cc1)CC1c3cc(c(OC)cc3CCN1C)Oc1c(OC)c(OC)cc3c1C(C2)N(C)CC3 (stereo unspecified) | inactive
COc1cc2c(cc1OC)-c1c(oc3cc(O)cc(O)c3c1=O)CO2 | inactive
Cc1cc(O)c(C)c(O)c1C(=O)O | inactive
CC1(C)CC[C@]2(C(=O)O)C(O)C[C@@]3(C)C(=CCC4[C@@]5(C)CCC(O)C(C)(C)C5CC[C@@]43C)C2C1 (stereo partly specified) | inactive
COc1ccc(/C=C/C(=O)c2cc(O)ccc2O)cc1 | inactive

Input line: Bench note: what outcome did `COc1cc(OC)c2c(=O)c(-c3ccccc3)coc2c1` show?
Output line: inactive

Input line: Return reported outcome; argument: O=C1OC(C(O)CO)C(O)=C1O (stereo unspecified)
Output line: inactive

Input line: Consider the molecule COc1cc2c(c(OC)c1OC)-c1ccc(OC)c(=O)cc1C(NC(C)=O)CC2 (stereo unspecified) and give its measured outcome.
Output line: inactive

Input line: Quick one: outcome for `COc1cc(O)c(C(=O)/C=C/c2ccc(O)c(OC)c2)c(OC)c1` ?
Output line: inactive

Input line: Looking for the measured outcome of Nc1ncnc2c1[nH]c(=O)n2C1CC(O)C(CO)O1 (stereo unspecified) , can you help?
Output line: inactive

Input line: Reported outcome, molecule C=C1c2c(Cl)ccc(O)c2C(O)=C2C(=O)[C@]3(O)C(O)=C(C(N)=O)C(=O)C(N(C)C)C3C(O)C12 (stereo partly specified) : ____
Output line: inactive

Input line: I am curious: what outcome value has been reported for CSCCC(NC=O)C(=O)NC(CC(C)C)C(=O)NC(Cc1ccccc1)C(=O)O (stereo unspecified) ?
Output line: inactive
